# PROCEDURE_DETAILS: gradient 5% acetonitrile 3 min, to 50% in 2 min, to 85% in 15 min, held 3 min, 100 µL/min
# CONDITIONS: column: Zorbax Extend-C18 2.1 x 50 mm; eluents: water / acetonitrile, 0.1% formic acid
Lab note: compare RP-LC retention time against 800 s. Equal or greater, write Fulfilled. Smaller, write Not fulfilled.

Query: Check this compound for RP-LC retention time at or above 800 s: COc1cccc(CNC(=O)CN2CCc3[nH]c4c(C)c(Cl)ccc4c(=O)c3C2)c1
Result: Not fulfilled

Query: Check this compound for RP-LC retention time at or above 800 s: Cc1cc2ccccc2n2c(SCC(=O)NCC3CCCO3)nnc12 (configuration not stated)
Result: Not fulfilled

Query: Check this compound for RP-LC retention time at or above 800 s: CCOC(=O)C1CCN(C(=O)c2csc(Nc3ccc(S(C)(=O)=O)cc3)n2)CC1
Result: Not fulfilled

Query: Check this compound for RP-LC retention time at or above 800 s: CCNC(=O)C1CCCN(S(=O)(=O)c2ccc(OC)c(OC)c2)C1 (configuration not stated)
Result: Not fulfilled

Query: Check this compound for RP-LC retention time at or above 800 s: COc1ccc(CC(=O)N2CCc3cc(-c4noc(C)n4)ccc32)cc1Cl
Result: Fulfilled

Query: Check this compound for RP-LC retention time at or above 800 s: CCC(=O)N1CCc2cc(C(=O)NC3CC3)ccc21
Result: Not fulfilled

Query: Check this compound for RP-LC retention time at or above 800 s: CCOC(=O)c1noc2nc(C)nc(N3CCN(c4ccc(Cl)cc4)CC3)c12
Result: Fulfilled

Query: Check this compound for RP-LC retention time at or above 800 s: CC[C@H](C)NC(=O)Cc1nnc(-c2ccccc2)o1
Result: Not fulfilled

Query: Check this compound for RP-LC retention time at or above 800 s: COc1cc(C(=O)NC2CCN(c3cc(-c4cccs4)[nH]n3)C2)cc(OC)c1OC (configuration not stated)
Result: Not fulfilled

Query: Check this compound for RP-LC retention time at or above 800 s: Cc1cccc(NC(=O)Cn2cnc3c(sc4nc(-c5ccccc5)ccc43)c2=O)c1C
Result: Fulfilled

Query: Check this compound for RP-LC retention time at or above 800 s: N#Cc1ccc(NC(=O)Cn2cccc(-c3nc(-c4ccccc4)no3)c2=O)cc1
Result: Fulfilled

* * *

What RP-LC retention time was measured for each of the following?
# PROCEDURE_DETAILS: gradient 5% acetonitrile 3 min, to 50% in 2 min, to 85% in 15 min, held 3 min, 100 µL/min
# CONDITIONS: column: Zorbax Extend-C18 2.1 x 50 mm; eluents: water / acetonitrile, 0.1% formic acid
Quick note: give the figure in s, leave out the unit.

Query: Reported RP-LC retention time, molecule CCn1c(CC2CCN(C(=O)Nc3ccc(C)cc3)C2)nc2cccnc21 (stereo not drawn) : ____
Result: 600

Query: Reported RP-LC retention time, molecule Nc1ccc(SCc2nnc(-c3cccc(F)c3)o2)cc1 : ____
Result: 784

Query: Reported RP-LC retention time, molecule CN(C)CCNC(=O)c1ccc(Nc2c(-c3ccccc3)nc3cnccn23)cc1 : ____
Result: 586

* * *

# PROCEDURE_DETAILS: gradient 5% acetonitrile 3 min, to 50% in 2 min, to 85% in 15 min, held 3 min, 100 µL/min
# CONDITIONS: column: Zorbax Extend-C18 2.1 x 50 mm; eluents: water / acetonitrile, 0.1% formic acid
Param label: returns Satisfied when RP-LC retention time < 800 s, returns Not satisfied otherwise, including exact equality.

Query: Strictly below 800 s in RP-LC retention time? CNC(=O)N1CC(c2nc(-c3ccccc3)no2)C2(CCOCC2)C1 (centres undefined)
Result: Satisfied

Query: Strictly below 800 s in RP-LC retention time? Cc1nccn1C1CN(C(=O)C(C)Oc2ccccc2)C1 (centres undefined)
Result: Satisfied

Query: Strictly below 800 s in RP-LC retention time? Cc1ccc(-n2c(N3CCCC(C(=O)NCC(C)C)C3)nc3ccsc3c2=O)cc1 (centres undefined)
Result: Not satisfied

Query: Strictly below 800 s in RP-LC retention time? O=C(O)c1nnn(-c2cccc(F)c2)c1-c1ccncc1
Result: Satisfied

Query: Strictly below 800 s in RP-LC retention time? Cc1cc2oc(C(=O)NCC(c3ccccc3)N(C)C)cc(=O)c2cc1C (centres undefined)
Result: Satisfied

Query: Strictly below 800 s in RP-LC retention time? CCCn1cc(CCNS(=O)(=O)Cc2cc(C)ccc2C)c2cccnc21
Result: Not satisfied

Query: Strictly below 800 s in RP-LC retention time? CCn1cc(CCNC(=O)NC)c2cccnc21
Result: Satisfied

Query: Strictly below 800 s in RP-LC retention time? CCn1ccc2cc(S(=O)(=O)N3CCCC(C(=O)N4CCN(C)CC4)C3)ccc21 (centres undefined)
Result: Satisfied

Query: Strictly below 800 s in RP-LC retention time? Cc1ccccc1-c1nnc(COc2ccc(NC(=O)C3CCC3)cc2)o1
Result: Not satisfied

Query: Strictly below 800 s in RP-LC retention time? O=C(c1ccc2nccnc2c1)N1CCC(c2nnc(C(F)(F)F)o2)CC1
Result: Satisfied

Query: Strictly below 800 s in RP-LC retention time? CN(C)c1ccc(C(=O)NC(Cc2ccccc2)c2nnc(N3CCCCC3)o2)cc1 (centres undefined)
Result: Not satisfied

Query: Strictly below 800 s in RP-LC retention time? CCOC(=O)C(NC(=O)Nc1c(-c2cccc(C)c2)nc2ccccn12)C(C)C (centres undefined)
Result: Satisfied

Query: Strictly below 800 s in RP-LC retention time? Cc1sc(-c2nc(C(C)C)cs2)cc1S(=O)(=O)NCc1cccs1
Result: Not satisfied

Query: Strictly below 800 s in RP-LC retention time? COc1ccc(C2(C)NC(=O)N(CC(=O)Nc3ccc([N+](=O)[O-])cc3)C2=O)cc1 (centres undefined)
Result: Satisfied

Query: Strictly below 800 s in RP-LC retention time? CC(C)(CO)NC(=O)Cc1ccc(NC(=O)CSc2ccc(F)cc2)cc1
Result: Satisfied

Query: Strictly below 800 s in RP-LC retention time? Cc1noc([C@@H]2CN(Cc3ccc(F)c(Cl)c3)C[C@H]2CO)n1
Result: Satisfied

Query: Strictly below 800 s in RP-LC retention time? CC1(C(=O)NCc2ccccc2)CCCN(C(=O)NC2CCCCC2)C1 (centres undefined)
Result: Not satisfied

* * *

What RP-LC retention time was measured for each of the following?
# PROCEDURE_DETAILS: gradient 5% acetonitrile 3 min, to 50% in 2 min, to 85% in 15 min, held 3 min, 100 µL/min
# CONDITIONS: column: Zorbax Extend-C18 2.1 x 50 mm; eluents: water / acetonitrile, 0.1% formic acid
Quick note: give the figure in s, leave out the unit.

Query: Reported RP-LC retention time, molecule CCc1noc(NC(C)=O)c1-c1ccc(C)c(S(=O)(=O)Nc2cccc(C(F)(F)F)c2)c1 : ____
Result: 889

Query: Reported RP-LC retention time, molecule CCCNC(=O)N1CCCC1c1nc(-c2cccc(Cl)c2)no1 (stereo not given) : ____
Result: 904

Query: Reported RP-LC retention time, molecule COC(=O)c1ccc2c(=O)n(-c3cc(OC)cc(OC)c3)c(N3CCOCC3)nc2c1 : ____
Result: 903

Query: Reported RP-LC retention time, molecule COc1ccc(-n2ncc3c(=O)n(Cc4nc(-c5ccc(OC)c(OC)c5)no4)cnc32)cc1 : ____
Result: 910

Query: Reported RP-LC retention time, molecule Cc1nc(Cn2cccc2C(=O)Nc2ccc(Cl)cc2)no1 : ____
Result: 899

* * *

# PROCEDURE_DETAILS: gradient 5% acetonitrile 3 min, to 50% in 2 min, to 85% in 15 min, held 3 min, 100 µL/min
# CONDITIONS: column: Zorbax Extend-C18 2.1 x 50 mm; eluents: water / acetonitrile, 0.1% formic acid
Lab note: compare RP-LC retention time against 900 s. Equal or greater, write YES. Smaller, write NO.

Query: Check this molecule for RP-LC retention time at or above 900 s: Cc1ccc(NC(=O)N2CCCC2c2c(C)noc2C)c(Cl)c1 (centres undefined)
Result: NO

Query: Check this molecule for RP-LC retention time at or above 900 s: O=C(Nc1cccc(-c2ccc(N3CCOCC3)nn2)c1)Nc1ccc2c(c1)CCC2
Result: NO

Query: Check this molecule for RP-LC retention time at or above 900 s: Clc1ccc(-c2nc(N3CCCCC3)c3ccccc3n2)cc1
Result: NO

Query: Check this molecule for RP-LC retention time at or above 900 s: O=C(CCn1nnc2cc(-c3noc(-c4ccc(F)c(F)c4)n3)ccc21)N1CCCC1
Result: YES

Query: Check this molecule for RP-LC retention time at or above 900 s: COc1cccc(NC(=O)c2csc(-c3cn(C)c4ncccc34)n2)c1
Result: YES

Query: Check this molecule for RP-LC retention time at or above 900 s: O=C(CN1CCN(Cc2cccc(Cl)c2)C1=O)NCc1ccc(C(F)(F)F)cc1
Result: YES

Query: Check this molecule for RP-LC retention time at or above 900 s: CCC1Oc2ccc(S(=O)(=O)N3CCC(C(=O)Nc4ccc(C)cc4C)CC3)cc2NC1=O (centres undefined)
Result: NO

Query: Check this molecule for RP-LC retention time at or above 900 s: O=C(Cn1ccn2nc(-c3ccc(F)cc3)c(CO)c2c1=O)Nc1ccc(F)cc1F
Result: NO

FYI, the data here is from the METLIN SMRT retention time set (Domingo-Almenara et al. 2019).
